assay: Half-life of the conjugate when treated with 10% foetal bovine serum for enzymatic stability; assay type: ADME, Bos taurus; settings: cattle
Non-standard residues stand in square brackets, D forms with d. Residues, ends and D or L forms follow the SMILES beside them. Lys(Me2) = CN(C)CCCC[C@H](N)C(=O)O; hLys = NCCCCC[C@H](N)C(=O)O
Here the recorded half-life is given for each entry.

// worked examples, half-life included
NCCCCC[C@H](NC(=O)[C@H](CCCCN)NC(=O)[C@H](CCCCCN)NC(=O)[C@H](CCCCN)NC(=O)[C@H](CCCCCN)NC(=O)[C@H](CCCCN)NC(=O)[C@H](CCCCCN)NC(=O)[C@@H](N)CCCCN)C(=O)N[C@H](C=O)CCCCN (H-K[hLys]K[hLys]K[hLys]K[hLys]K-aldehyde)    > 168 h
NCCCC[C@@H](C=O)NOC(=O)[C@H](CCCN)NOC(=O)[C@H](CCCN)NC(=O)[C@H](CCCCN)NC(=O)[C@H](CCCCN)NC(=O)[C@H](CCCCN)NC(=O)[C@H](CCCCN)NOC(=O)[C@H](CCCN)NOC(=O)[C@@H](N)CCCN    > 168 h

The recorded half-life for NCCCC[C@@H](C=O)NC(=O)[C@H](Cc1c[nH]cn1)NC(=O)[C@H](CCCCN)NC(=O)[C@H](Cc1c[nH]cn1)NC(=O)[C@H](CCCCN)NC(=O)[C@H](Cc1c[nH]cn1)NC(=O)[C@H](CCCCN)NC(=O)[C@H](Cc1c[nH]cn1)NC(=O)[C@@H](N)CCCCN (H-KHKHKHKHK-aldehyde) is > 168 h

// recorded half-life for NCCCC[C@@H](C=O)NC(=O)CC(CCCN)NC(=O)CC(CCCN)NC(=O)CC(CCCN)NC(=O)CC(CCCN)NC(=O)CC(CCCN)NC(=O)CC(CCCN)NC(=O)CC(CCCN)NC(=O)CC(N)CCCN (some centres not stated) : > 168 h

The molecule listed as NCCCC[C@@H](C=O)NC(=O)[C@H](Cc1c[nH]cn1)NC(=O)[C@H](Cc1c[nH]cn1)NC(=O)[C@H](Cc1c[nH]cn1)NC(=O)[C@H](Cc1c[nH]cn1)NC(=O)[C@H](Cc1c[nH]cn1)NC(=O)[C@H](Cc1c[nH]cn1)NC(=O)[C@H](Cc1c[nH]cn1)NC(=O)[C@@H](N)Cc1c[nH]cn1 (H-HHHHHHHHK-aldehyde) has a reported half-life of > 168 h

molecule NCCCC[C@@H](C=O)NC(=O)[C@H](CCCCN)NC(=O)[C@H](CCCCN)NOC(=O)[C@H](CCCN)NC(=O)[C@H](CCCCN)NC(=O)[C@H](CCCCN)NOC(=O)[C@H](CCCN)NC(=O)[C@H](CCCCN)NC(=O)[C@@H](N)CCCCN , half-life observed: > 168 h

# molecule CN(C)CCCC[C@H](NC(=O)[C@H](CCCCN(C)C)NC(=O)[C@H](CCCCN)NC(=O)[C@H](CCCCN(C)C)NC(=O)[C@H](CCCCN(C)C)NC(=O)[C@H](CCCCN)NC(=O)[C@H](CCCCN(C)C)NC(=O)[C@@H](N)CCCCN(C)C)C(=O)N[C@H](C=O)CCCCN (H-[Lys(Me2)][Lys(Me2)]K[Lys(Me2)][Lys(Me2)]K[Lys(Me2)][Lys(Me2)]K-aldehyde) ; its half-life = > 168 h
